Listed here: molecules with reported IC50 for Egl nine homolog 1 (Homo sapiens).
Answers are plain numbers, in nM.

O=C(O)CNC(=O)c1ncc(C2=CCN(S(=O)(=O)Cc3ccccc3)CC2)cc1O
18.2
N#Cc1ccc(S(=O)(=O)N2CC=C(c3cnc(C(=O)NCC(=O)O)c(O)c3)CC2)cc1
20.7
O=C(O)CNC(=O)c1ncc(C2=CCN(Cc3ccc(Cl)cc3)CC2)cc1O
73.9
O=C(O)CNC(=O)c1ncc(C2=CCN(S(=O)(=O)c3ccc(OC(F)(F)F)cc3)CC2)cc1O
50.9
O=C(O)CNC(=O)c1ncc(C2=CCN(S(=O)(=O)Cc3ccc(C(F)(F)F)cc3)CC2)cc1O
7.97
O=C(O)CNC(=O)c1ncc(C2=CCN(C(=O)Nc3ccc(Cl)cc3)CC2)cc1O
27
O=C(O)CNC(=O)c1ncc(C2=CCN(S(=O)(=O)c3cccc(F)c3)CC2)cc1O
141
O=C(O)CNC(=O)c1ncc(C2=CCN(S(=O)(=O)c3cccs3)CC2)cc1O
46.5

Consider the additional molecule presented here.
Recorded IC50 for `O=C(O)CNC(=O)c1ncc(C2=CCN(S(=O)(=O)c3ccc4ccccc4c3)CC2)cc1O` , please?
97.4

----------
Listed here: molecules with reported IC50 for Egl nine homolog 1 (Homo sapiens, UniProt Q9GZT9).
Answers are plain numbers, in nM.

Below, 4 molecules whose answers are already recorded.
O=C(O)CNC(=O)c1ncc(C2=CCN(S(=O)(=O)Cc3ccc(Br)cc3)CC2)cc1O
6.95
Cc1ccc(S(=O)(=O)N2CC=C(c3cnc(C(=O)NCC(=O)O)c(O)c3)CC2)cc1
45.3
O=C(O)CNC(=O)c1ncc(C2=CCN(S(=O)(=O)c3cccc4ccccc34)CC2)cc1O
22.4
O=C(O)CNC(=O)c1ncc(C2=CCN(S(=O)(=O)Cc3ccc(OC(F)(F)F)cc3)CC2)cc1O
6.55

Consider the additional molecule presented here.
Recorded IC50 for `O=C(O)CNC(=O)c1ncc(C2=CCN(C(=O)c3ccc(Cl)cc3)CC2)cc1O` , please?
25
